Test system: MDA-MB-231
Assay Text: Antiproliferative activity in cell culture over time
Type: cell-based, human
Study Conditions: read-out: IC50 (antiproliferative activity); at 24 hours
pIC50: −log10 of the molar value.
Measured Endpoint: pIC50

• O=C1Nc2c(C(F)(F)F)cccc2C1(c1ccc(O)cc1)c1ccc(OC(F)(F)F)cc1 (stereo not shown) = 4.64

###

System: cell lines lacking ERα
Assay Text: Diverse cell line panel, cell death induction
Type: cell-based
Study Conditions: read-out: average IC50 value
pIC50: −log10 of the molar value.
Measured Endpoint: pIC50

* O=C1Nc2c(C(F)(F)F)cccc2C1(c1ccc(O)cc1)c1ccc(OC(F)(F)F)cc1 (stereo not shown) [ErSO] | 4.91
